experiment: Lipophilicity, log D of the compound at pH 7.4 by RP-HPLC analysis; format: physicochemical; conditions: buffer
measure: logD

smiles_structure	logD
Cc1cccc(F)c1C(=O)N1CCC(c2cn(C)c3ncc(NC(=O)c4cccc(C#N)c4)c(C)c23)CC1	3.1

1: Cc1c(NC(=O)c2cccc(C#N)c2)cnc2c1c(C1CCN(C(=O)CC(C)C)CC1)cn2C
2: Cc1c(NC(=O)c2cccc(C#N)c2)cnc2c1c(C1CCN(C(=O)C3CCCCC3)CC1)cn2C
Which numeric logD is bigger, that of 1 or that of 2 ? Write the label of whichever entry you select. 2
(2: 3.9, 1: 2.5)

a: Cn1cc(C2CCN(C(=O)C3CCCC3)CC2)c2nc(NC(=O)c3cc(C#N)ccn3)ccc21
b: COc1c(NC(=O)c2cccc(C#N)c2)cnc2c1c(C1CCN(C(=O)C(C)C)CC1)cn2C
Which numeric logD is bigger, that of a or that of b ? Write the label of whichever entry you select. a
(a: 4.2, b: 2)

a: Cn1cc(C2CCN(C(=O)C3CCCC3)CC2)c2cc(NC(=O)c3cc(C#N)ccn3)cnc21
b: Cc1c(NC(=O)c2cccc(C#N)c2)cnc2c1c(C1CCN(C(=O)C(C)C)CC1)cn2C
Lower logD: a or b ? Write the label of whichever entry you select. b

a: CC(C)C(=O)N1CCC(c2cn(C)c3ncc(NC(=O)c4cccc(C#N)c4)c(C(F)(F)F)c23)CC1
b: COc1ccc(C(=O)Nc2cnc3c(c(C4CCN(C(=O)C(C)C)CC4)cn3C)c2C)cc1C#N
Which numeric logD is bigger, that of a or that of b ? Write the label of whichever entry you select. a
(a: 3.7, b: 2.4)

* * *

experiment: Volume of distribution at steady state in Wistar Han rat at 1 mg/kg, iv or 3 mg/kg, po via gavage by LC-MS/MS analysis; format: ADME, organism-based; conditions: in vivo, read-out: Vdss
measure: Vd (L/kg)
Field: numeric (L/kg). Do not append units.

CC(C)C(=O)N1CCC(c2cn(C)c3ncc(NC(=O)c4cccc(C#N)c4)c(C(F)(F)F)c23)CC1 has a reported Vd of 1.4

* * *

assay: Oral bioavailability in Wistar Han rat at 3 mg/kg administered via spray-dried dispersion by LC-MS/MS analysis; type: ADME, organism-based; settings: in vivo
measure: bioavailability (%)
Field: numeric (%). Do not append units.

CC(C)C(=O)N1CCC(c2cn(C)c3ncc(NC(=O)c4cccc(C#N)c4)c(C(F)(F)F)c23)CC1 has a reported bioavailability of 83
